# kon per record follows
Target: T1, human TfR ectodomain fused to a mouse IgG1 Fc fragment (human, UniProt P02786 89-760)
T1 construct: extracellular domain; ectodomain fused to the N-terminal end of the Fc, made in-house; not shown: mouse IgG1 Fc fragment
T1 sequence (P02786 89-760): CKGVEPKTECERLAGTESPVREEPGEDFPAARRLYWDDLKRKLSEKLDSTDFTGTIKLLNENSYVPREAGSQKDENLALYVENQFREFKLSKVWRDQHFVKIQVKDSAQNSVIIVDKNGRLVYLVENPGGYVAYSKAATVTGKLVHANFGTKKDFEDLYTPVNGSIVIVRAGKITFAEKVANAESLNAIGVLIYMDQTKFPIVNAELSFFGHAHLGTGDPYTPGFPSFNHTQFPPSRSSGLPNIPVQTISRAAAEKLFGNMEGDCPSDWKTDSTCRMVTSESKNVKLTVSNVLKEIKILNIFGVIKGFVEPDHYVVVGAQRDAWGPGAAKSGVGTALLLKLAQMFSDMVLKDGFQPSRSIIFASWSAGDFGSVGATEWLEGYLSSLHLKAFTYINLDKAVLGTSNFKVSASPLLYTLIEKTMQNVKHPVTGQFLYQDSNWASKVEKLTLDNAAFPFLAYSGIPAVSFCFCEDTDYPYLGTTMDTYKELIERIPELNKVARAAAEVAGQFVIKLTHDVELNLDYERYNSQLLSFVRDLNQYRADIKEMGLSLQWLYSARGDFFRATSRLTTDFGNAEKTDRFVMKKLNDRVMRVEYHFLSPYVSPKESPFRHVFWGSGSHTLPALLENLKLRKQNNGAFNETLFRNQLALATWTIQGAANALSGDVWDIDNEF
Assay: SPR, kinetic
A number alone suffices; assume M⁻¹ s⁻¹.

Solved entries (count: 4):
{"columns": ["binder", "kon / M⁻¹ s⁻¹"],
 "data": [
  ["B8^V29 (VHH) VHH: EVQLVESGGGVVQPGGSLRLSCAASGEIFSINFMRWYRQAPGKQREWVAGFTRDGSTNYPDSAKGRFTISRDNAKNTVYLQIDSLKPEDTAVYYCYMADTWGQGTQVTVSS", 682000],
  ["VHH A13 (C5^V13) (VHH) VHH: EVQLVESGGGVVQPGGSLKLSCVASGTDFSINFIRWYRQAPGKQREFVAGFSATGNTNYADSMKGRFTISRDNTKNAVYLQIDSLKPEDTAVYYCYMLDKWGQGTQVTVSS", "1.14e+06"],
  ["F2a (VHH) VHH: EVQLVESGGGLVQPGESLRLSCTASESISIYGVGWYRQAPGEQRVLVAHLKRNGLTEYKDSVKGRFTISRDNARNTIYLEMKNLKPEDTAIYYCNTALGSVLPWGRGTQVTVSS", "1.39e+06"],
  ["VHH C (B6) (VHH) VHH: EVQLVESGGGLVQPGGSLRLSCTASGGPIEQYPMGWFRRAPGKERELVASISRSGDGTYYAISSVKGRFTISRDNAENTVFLQMNSLKPDDTAVYYCGAGINPTKIWGQGTQVTVSS", "1.73e+06"]
]}

For VHH A11 (C5^V11) (VHH) VHH: EVQLVESGGGVVQPGGSLKLSCVASGTDFSINYIRWYRQAPGKQREFVAGFTATGNTNYADSMKGRFTISRDNTKNAVYLQIDSLKPEDTAVYYCYMLDKWGQGTQVTVSS , what is its reported kon?
790000

For VHH B (B8) (VHH) VHH: EVQLVESGGGVVQPGGSLRLSCAASGEIFSINFMRWYRQAPGKQREWVAGFTRDGSTNYPDSAKGRFTISRDNAKNTVYLQIDSLKPEDTAVYYCYMLDTWGQGTQVTVSS , what is its reported kon?
677000

For VHH A19 (C5^V19) (VHH) VHH: EVQLVESGGGVVQPGGSLKLSCVASGTDFSINFIRWYRQAPGKQREFVAGFTATGNTNYADSMKGRFTISRDNTKNAVYLQIDSLKPEDTAVYYCYMLEKWGQGTQVTVSS , what is its reported kon?
426000

For C5^h20 (VHH) VHH: EVQLVESGGGVVQPGGSLRLSCAASGTDFSINFIRWYRQAPGKGLEFVAGFTATGNTNYADSVKGRFTISRDNAKNAVYLQMNSLRPEDTAVYYCYMLDKWGQGTQVTVSS , what is its reported kon?
866000

For B8^V32 (VHH) VHH: EVQLVESGGGVVQPGGSLRLSCAASGEIRSINFMRWYRQAPGKQREWVAGFTRDGSTNYPDSAKGRFTISRDNAKNTVYLQIDSLKPEDTAVYYCYMLDTWGQGTQVTVSS , what is its reported kon?
420000

For B8^V1 (VHH) VHH: EVQLVESGGGVVQPGGSLRLSCAADGEIFSINFMRWYRQAPGKQREWVAGFTRDGSTNYPDSAKGRFTISRDNAKNTVYLQIDSLKPEDTAVYYCYMLDTWGQGTQVTVSS , what is its reported kon?
183000

For B8^V38 (VHH) VHH: EVQLVESGGGVVQPGGSLRLSCAASGEIRSINFMRWYRQAPGKQREWVAGFTRTGSTNYPDSAKGRFTISRDNAKNTVYLQIDSLKPEDTAVYYCYMLDTWGQGTQVTVSS , what is its reported kon?
596000

For B8^V16 (VHH) VHH: EVQLVESGGGVVQPGGSLRLSCAASGEIFSINFMRWYRQAPGKQREQVAGFTRDGSTNYPDSAKGRFTISRDNAKNTVYLQIDSLKPEDTAVYYCYMLDTWGQGTQVTVSS , what is its reported kon?
1.03e+06

For B8^V22 (VHH) VHH: EVQLVESGGGVVQPGGSLRLSCAASGEIFSINQMRWYRQAPGKQREWVAGFTRDGSTNYPDSAKGRFTISRDNAKNTVYLQIDSLKPEDTAVYYCYMLDTWGQGTQVTVSS , what is its reported kon?
698000

For VHH D (H3) (VHH) VHH: EVQLVESGGGEVQPGGSLKLSCVASGTDFSINFVRWYRQRPGKQREWVAGFTANGDTNYPDSMKGRFTISRDNAKNTVYLQINSLKSEDTAVYYCYMLDNWGQGTQVTVSS , what is its reported kon?
1.01e+06

For C3 (VHH) VHH: EVQLVQSGGGLVQAGGSLRLSCAASGRDFSDTSMAWHRQAPGKERLWVAGIRSGSTSTSYADSVKGRFTISRDDAKNTVYLQMDNLTPEDTAVYFCYSKGYWGQGTQVTVSS , what is its reported kon?
5.9e+06

For C5^h18 (VHH) VHH: EVQLVESGGGVVQPGGSLKLSCVASGTDFSINFIRWYRQAPGKGLEFVAGFTATGNTNYADSVKGRFTISRDNAKNTLYLQMNSLRPEDTAVYYCYMLDKWGQGTQVTVSS , what is its reported kon?
462000
